Target system: T1, FcεRI-IgG (UniProt P12319 26-205)
T1 construct: extracellular domain; Produced from CHO cells (Genentech); also called FcεRI-Fc; bivalent fusion protein of the extracellular domain of FcεRI and the Fc domain of IgG; not shown: Fc domain of IgG
T1 sequence (looked up): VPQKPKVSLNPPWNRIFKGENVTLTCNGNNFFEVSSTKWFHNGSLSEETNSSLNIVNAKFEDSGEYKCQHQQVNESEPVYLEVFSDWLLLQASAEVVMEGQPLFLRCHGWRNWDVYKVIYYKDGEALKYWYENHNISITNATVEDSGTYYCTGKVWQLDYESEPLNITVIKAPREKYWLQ
Protocol text: competitive phage ELISA; relative to g3c.42
Where no end group is shown, it is not given here.
Quantity: Relative (IC50) (fold weaker) (fold)
Reply with just the number (in fold).

// below: answered binders
[[record]]
binder = "NLPRCTEGPWGWVCM (not fully specified; cysteine pairing not given here, not shown: fused to M13 gene-3 protein (g3p) on phage) [g3c.34 peptide-phage]"
measurement_units = "fold"
val = 3

[[record]]
binder = "NLPRCTEGPWGWVCMA (not fully specified (bridges); cysteine pairing not given here, Monovalent g3p phage display; not shown: fused to M13 gene-3 protein (g3p) on phage) [g3c.31 peptide-phage]"
measurement_units = "fold"
val = 1

[[record]]
binder = "NLPRCTEGPWGWVCMAA (not fully specified (bridges); cysteine pairing not given here, Monovalent g3p phage display; not shown: fused to M13 gene-3 protein (g3p) on phage) [g3c.29 peptide-phage]"
measurement_units = "fold"
val = 1


[Q] Supply recorded Relative (IC50) (fold weaker) for LPRCTEGPWGWVCMAAD (not fully specified; cysteine pairing not given here, Monovalent g3p phage display; not shown: fused to M13 gene-3 protein (g3p) on phage) [g3c.1 peptide-phage] here.
[A] 1
